Each record here notes measured melting point.

Please review the following examples before continuing.
- MOLECULE: "N=C(Nc1cccc(NC(=O)/C=C/c2ccccc2C(F)(F)F)c1)c1ccccc1"
  REPORTED_MEASUREMENT: "82 to 84 °C"
- MOLECULE: "O=C(O)c1cnn(O)c1"
  REPORTED_MEASUREMENT: "230 °C"
- MOLECULE: "O=C(CCCI)ON1C(=O)CCC1=O"
  REPORTED_MEASUREMENT: "86 to 87 °C"
- MOLECULE: "O=C(C=Cc1ccc(Cl)cc1)C(CC=Cc1ccccc1)c1ccccc1 (stereo not drawn)"
  REPORTED_MEASUREMENT: "92 to 95 °C"
- MOLECULE: "Cc1cc(CC(=O)O)n(C)c1C(=O)c1ccc(F)cc1"
  REPORTED_MEASUREMENT: "176 to 178 °C"
- MOLECULE: "CCCCSc1cc(C(=O)O)cc(S(N)(=O)=O)c1-c1ccccc1"
  REPORTED_MEASUREMENT: "75 to 77 °C"

query: Query: melting point; subject: CN1CCC=C(c2cccc3[nH]ccc23)C1
result: 175 °C

query: For the molecule shown here, NC(=O)COC(=O)NCCC[C@H]1OC[C@H](c2ccc(Cl)c3ccccc32)CO1 , give the reported melting point.
result: 176 to 178 °C

query: Quick check: melting point of N#Cc1ccc(N(Cc2ccc(OCc3ccccc3)cc2)n2cnnc2)cc1-c1ccc(F)cc1 ?
result: 211 to 213 °C

query: Fill blank: measured melting point of the molecule Cc1cc(=O)n(C)c2nc(-c3ccncc3)nn12 is ____.
result: 195 to 197 °C

query: What melting point value was documented for this molecule, Oc1ccc(OCCCCOc2ccc(O)cc2)cc1 ?
result: 202 to 204 °C

query: Fill in the blank: the reported melting point of CCCNS(=O)(=O)c1cc(C(=O)CCC(=O)OC)ccc1Cl is ____.
result: 93 to 94 °C

query: Suppose we examine the molecule CCN(CC)C(=O)c1nc(CCl)n(-c2ccc(Cl)cc2C(=O)c2ccccc2)n1 ; what melting point value has been reported?
result: 118 to 119 °C

query: Please give the measured melting point for this molecule: Nc1cc2ccncc2c2sc3ccccc3c12
result: 220 to 225 °C

query: I would be grateful if you could share the reported melting point for CCn1ncc2c1ncc1c(Cl)nc3ncnn3c12 .
result: 196 to 197 °C

query: // returns reported melting point for input CC(=O)Oc1cn(C(C)=O)c2ccc(F)c(Cl)c12
result: 168 to 169 °C

query: Name the reported melting point value associated with the molecule CC(C)n1cnc2nc(-c3ccc(Cl)cc3)nn2c1=S
result: 230 to 232 °C

query: Item under review: CN(C)c1ccc(-c2ccccc2C(=O)O)nc1 . Reported melting point?
result: 234 to 236 °C
